measured target: T1, monomeric human CSF1R ectodomain protein (human, UniProt P07333 20-517)
T1 construct: also called biotinylated monomeric human CSF1R
assay explanation: SPR Biacore, IgG captured, monomeric CSF1R analyte
readout name: koff (s⁻¹)
Only the number, expressed in s⁻¹, is required.

Sample answers from the record:
{"binder": "MH5 (antibody, human IgG4, V domains shown, Designer (maximally humanized) clone; tested as human IgG4(S228P)/Ckappa IgG; also called mAb-2) VH: QVQLVQSGAEVKKPGSSVKVSCKASGYTFSSYYMIWVRQAPGQGLEWMGDINPYNGGANYAQKFQGRVTITADESTSTAYMELSSLRSEDTAVYYCAREGPYFSNLYVMDYWGQGTLVTVSS VL: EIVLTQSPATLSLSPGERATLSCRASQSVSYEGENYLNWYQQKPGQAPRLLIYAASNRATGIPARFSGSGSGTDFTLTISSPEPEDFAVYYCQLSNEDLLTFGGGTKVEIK", "koff (s⁻¹)": 0.00036}
{"binder": "MH21 (antibody, human IgG4, V domains shown, Deimmunized MH5 derivative, human IgG4(S228P)/Ckappa IgG) VH: QVQLVQSGAEVKKPGSSVKVSCKASGYTFSSSYMIWVRQAPGQGLEWMGDINPYNGGANYAQKFQGRVTITADESTSTAYMELSSLRSEDTAVYYCAREGPYFSNLYVMDYWGQGTLVTVSS VL: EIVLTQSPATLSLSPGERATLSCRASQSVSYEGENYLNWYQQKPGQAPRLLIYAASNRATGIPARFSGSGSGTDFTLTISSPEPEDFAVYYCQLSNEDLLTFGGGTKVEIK", "koff (s⁻¹)": 0.00189}

Please examine the following record next.
input: Param item = MH16 (antibody, human IgG4, V domains shown, Deimmunized MH5 derivative, human IgG4(S228P)/Ckappa IgG; also called mAb-5) VH: QVQLVQSGAEVKKPGSSVKVSCKASGYTFSSAYMIWVRQAPGQGLEWMGDINPYNGGANYAQKFQGRVTITADESTSTAYMELSSLRSEDTAVYYCAREGPYFSNLYVMDYWGQGTLVTVSS VL: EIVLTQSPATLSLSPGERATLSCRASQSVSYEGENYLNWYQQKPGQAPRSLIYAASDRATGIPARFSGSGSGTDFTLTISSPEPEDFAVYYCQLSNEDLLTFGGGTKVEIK ; retrieve measured koff.
output: 0.000897
